SYSTEM: NFIA full-length (human, UniProt Q12857 1-509)
Sequence (Q12857 whole entry): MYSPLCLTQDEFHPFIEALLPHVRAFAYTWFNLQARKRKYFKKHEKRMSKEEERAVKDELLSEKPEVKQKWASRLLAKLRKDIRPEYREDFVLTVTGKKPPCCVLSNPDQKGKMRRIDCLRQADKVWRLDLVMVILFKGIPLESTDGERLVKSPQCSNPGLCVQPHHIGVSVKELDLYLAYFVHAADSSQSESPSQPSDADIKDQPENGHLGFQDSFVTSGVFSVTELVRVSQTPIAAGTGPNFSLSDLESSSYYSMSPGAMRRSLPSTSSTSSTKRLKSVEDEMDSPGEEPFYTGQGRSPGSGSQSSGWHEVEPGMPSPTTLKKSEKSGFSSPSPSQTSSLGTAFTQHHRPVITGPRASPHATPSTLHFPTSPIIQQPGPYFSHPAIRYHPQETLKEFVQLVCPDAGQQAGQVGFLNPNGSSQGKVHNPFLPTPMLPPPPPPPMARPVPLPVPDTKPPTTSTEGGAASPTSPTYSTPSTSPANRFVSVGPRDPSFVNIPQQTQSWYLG
ASSAY_REMARKS: BLI
EXPERIMENTAL_ENDPOINT: pKd
The read-out pKd is expressed as -log10 of concentration in moles per litre.

What value of pKd has been recorded for this entry: DNA-S (dsDNA) DNA 1: AGTTGGCAAGTC DNA 2: GACTTGCCAACT
7.69
